Listed here: items and their measured GI50.
- System: NCI-H460
- protocol_text: Cytotoxicity against human NCI-H460 cells by SRB assay
- Assay type: functional
Your answer should be a plain number; it is taken to be in µM.

Ask: // GI50 lookup, key: C[C@@H](C(=O)O)[C@@]1(C)CC[C@H]2[C@@](C)(CC[C@@]3(C)[C@@H]4CC(C)(C)CC[C@]4(C)CC[C@]23C)[C@@H]1CC=O
Result: 5.4

Ask: Give its GI50 value. Item: COc1cccc2c1C(=O)c1c(O)c3c(c(O)c1C2=O)C[C@@](O)(C(=O)CO)C[C@@H]3O[C@H]1C[C@H](N)[C@H](O)[C@H](C)O1
Result: 0.0081

Ask: # GI50 lookup, item C[C@H]1[C@@H](O)[C@H](O)C[C@@H]2[C@]1(C)CC[C@H]1[C@@]2(C)CC[C@@]2(C)[C@@H]3CC(C)(C)CC[C@]3(C)CC[C@]12C
Result: 79.4

---

- Test system: NCI-H460
- protocol_text: Cytotoxicity against human NCI-H460 cells by SRB assay
- Format: functional
measurement_name: GI50

structure_smiles_string: COC(=O)[C@H](C)[C@@]1(C)CC[C@H]2[C@@](C)(CC[C@@]3(C)[C@@H]4CC(C)(C)CC[C@]4(C)CC[C@]23C)[C@@H]1CC=O
measurement_target: NCI-H460
experimental_value: > 100 µM
--
structure_smiles_string: C[C@H]1[C@H](O)C(=O)C[C@@H]2[C@]1(C)CC[C@H]1[C@@]2(C)CC[C@@]2(C)[C@@H]3CC(C)(C)CC[C@]3(C)CC[C@]12C
measurement_target: NCI-H460
experimental_value: > 100 µM

Here is another compound to look at.
Ask: Given C[C@H]1C(=O)C=C[C@@H]2[C@]1(C)CC[C@H]1[C@@]2(C)CC[C@@]2(C)[C@@H]3CC(C)(C)CC[C@]3(C)CC[C@]12C , state its recorded GI50.
Result: > 100 µM
